Test system: 327498-153-R-J2-PDC complex spheroid growth, % test/control
Run Description: Anticancer human tumor 327498-153-R-J2-PDC patient-derived uterine carcinosarcoma cell line growth inhibition [Asc]
Test Context: second compound 0.316 µM; first compound 10 µM; stronger effect = lower value

| Compound | Unit String | viability, T/C |
| --- | --- | --- |
| C=CC(=O)N1CCN(c2nc(=O)n(-c3c(C)ccnc3C(C)C)c3nc(-c4c(O)cccc4F)c(F)cc23)C(C)C1 (centres undefined) + Cc1c(S(C)(=O)=O)c(-c2cc(F)cc(N3CCN(c4ccc(NS(=O)(=O)c5ccc(NC(CCN6CCC(C(=O)OCCCP(=O)(O)O)CC6)CSc6ccccc6)c(S(=O)(=O)C(F)(F)F)c5)cc4)CC3)c2)c(-c2ccc(Cl)cc2)n1C(C)C | % | 56.4 |
| C#Cc1c(F)ccc2cc(O)cc(-c3ncc4c(N5CC6CCC(C5)N6)nc(OCC56CCCN5CC(F)C6)nc4c3F)c12 (centres undefined) + Cc1c(S(C)(=O)=O)c(-c2cc(F)cc(N3CCN(c4ccc(NS(=O)(=O)c5ccc(NC(CCN6CCC(C(=O)OCCCP(=O)(O)O)CC6)CSc6ccccc6)c(S(=O)(=O)C(F)(F)F)c5)cc4)CC3)c2)c(-c2ccc(Cl)cc2)n1C(C)C | % | 47.3 |
| C=C(F)C(=O)N1CCN(c2nc(OCC3CCCN3C)nc3c2CCN(c2cccc4cccc(Cl)c24)C3)CC1CC#N (centres undefined) + Cc1c(S(C)(=O)=O)c(-c2cc(F)cc(N3CCN(c4ccc(NS(=O)(=O)c5ccc(NC(CCN6CCC(C(=O)OCCCP(=O)(O)O)CC6)CSc6ccccc6)c(S(=O)(=O)C(F)(F)F)c5)cc4)CC3)c2)c(-c2ccc(Cl)cc2)n1C(C)C | % | 0.12 |
| O=C(c1cc(Cc2n[nH]c(=O)c3ccccc23)ccc1F)N1CCN(C(=O)C2CC2)CC1 + CNC(C)C(=O)NC1CN(S(=O)(=O)c2cccc(S(=O)(=O)N3CCC4CCC(C(=O)NC(c5ccccc5)c5ccccc5)N4C(=O)C(NC(=O)C(C)NC)C3)c2)CCC2CCC(C(=O)NC(c3ccccc3)c3ccccc3)N2C1=O | % | 11.1 |

====

Readings of pIC50 for the listed compounds
Tested on: 327498-153-R-J2-PDC complex spheroid growth, % test/control
Run Description: Anticancer human tumor 327498-153-R-J2-PDC cell line growth inhibition [Asc];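 also: spheroids exposed to compound for 7 days after 3 days of growth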
Test Context: curve of first compound; second compound 3.16 µM
pIC50: −log10 of the molar value.

| Compound | pIC50 |
| --- | --- |
| C=CC(=O)N1CCN(c2nc(=O)n(-c3c(C)ccnc3C(C)C)c3nc(-c4c(O)cccc4F)c(F)cc23)C(C)C1 (stereo not drawn) + Cc1c(S(C)(=O)=O)c(-c2cc(F)cc(N3CCN(c4ccc(NS(=O)(=O)c5ccc(NC(CCN6CCC(C(=O)OCCCP(=O)(O)O)CC6)CSc6ccccc6)c(S(=O)(=O)C(F)(F)F)c5)cc4)CC3)c2)c(-c2ccc(Cl)cc2)n1C(C)C | < 5.00 |
| NC1CCC(NC2CC2c2ccccc2)CC1 (stereo not drawn) + Cc1c(S(C)(=O)=O)c(-c2cc(F)cc(N3CCN(c4ccc(NS(=O)(=O)c5ccc(NC(CCN6CCC(C(=O)OCCCP(=O)(O)O)CC6)CSc6ccccc6)c(S(=O)(=O)C(F)(F)F)c5)cc4)CC3)c2)c(-c2ccc(Cl)cc2)n1C(C)C | < 7.00 |
| CNC(C)C(=O)NC1CN(S(=O)(=O)c2cccc(S(=O)(=O)N3CCC4CCC(C(=O)NC(c5ccccc5)c5ccccc5)N4C(=O)C(NC(=O)C(C)NC)C3)c2)CCC2CCC(C(=O)NC(c3ccccc3)c3ccccc3)N2C1=O (stereo not drawn) + Cc1c(S(C)(=O)=O)c(-c2cc(F)cc(N3CCN(c4ccc(NS(=O)(=O)c5ccc(NC(CCN6CCC(C(=O)OCCCP(=O)(O)O)CC6)CSc6ccccc6)c(S(=O)(=O)C(F)(F)F)c5)cc4)CC3)c2)c(-c2ccc(Cl)cc2)n1C(C)C | < 6.00 |

====

Readings of pIC50 for the listed compounds
System: 327498-153-R-J2-PDC complex spheroid growth, % test/control
Run Description: Anticancer human tumor 327498-153-R-J2-PDC cell line growth inhibition [Asc];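 also: spheroids exposed to compound for 7 days after 3 days of growth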
Test Context: curve of first compound; second compound 1 µM
pIC50: −log10 of the molar value.
Observed Property: pIC50

| Compound | Obs Value |
| --- | --- |
| NC1CCC(NC2CC2c2ccccc2)CC1 (stereo not drawn) + Cc1c(S(C)(=O)=O)c(-c2cc(F)cc(N3CCN(c4ccc(NS(=O)(=O)c5ccc(NC(CCN6CCC(C(=O)OCCCP(=O)(O)O)CC6)CSc6ccccc6)c(S(=O)(=O)C(F)(F)F)c5)cc4)CC3)c2)c(-c2ccc(Cl)cc2)n1C(C)C | < 7.00 |
| CCN1CCN(Cc2ccc(Nc3ncc(F)c(-c4cc(F)c5nc(C)n(C(C)C)c5c4)n3)nc2)CC1 + Cc1c(S(C)(=O)=O)c(-c2cc(F)cc(N3CCN(c4ccc(NS(=O)(=O)c5ccc(NC(CCN6CCC(C(=O)OCCCP(=O)(O)O)CC6)CSc6ccccc6)c(S(=O)(=O)C(F)(F)F)c5)cc4)CC3)c2)c(-c2ccc(Cl)cc2)n1C(C)C | < 6.00 |
| C#Cc1c(F)ccc2cc(O)cc(-c3ncc4c(N5CC6CCC(C5)N6)nc(OCC56CCCN5CC(F)C6)nc4c3F)c12 (stereo not drawn) + CNC(C)C(=O)NC1CN(S(=O)(=O)c2cccc(S(=O)(=O)N3CCC4CCC(C(=O)NC(c5ccccc5)c5ccccc5)N4C(=O)C(NC(=O)C(C)NC)C3)c2)CCC2CCC(C(=O)NC(c3ccccc3)c3ccccc3)N2C1=O | < 5.00 |

====

Readings of viability, T/C for the listed compounds
Tested on: 327498-153-R-J2-PDC complex spheroid growth, % test/control
Run Description: Anticancer human tumor 327498-153-R-J2-PDC cell line growth inhibition [Asc];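 also: spheroids exposed to compound for 7 days after 3 days of growth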;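 as to viability, T/C: 100% = DMSO vehicle control wells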
Test Context: second compound 0.1 µM; first compound 10 µM; stronger effect = lower value

| Compound | Unit String | viability, T/C |
| --- | --- | --- |
| C#Cc1c(F)ccc2cc(O)cc(-c3ncc4c(N5CC6CCC(C5)N6)nc(OCC56CCCN5CC(F)C6)nc4c3F)c12 (centres undefined) + CNC(C)C(=O)NC1CN(S(=O)(=O)c2cccc(S(=O)(=O)N3CCC4CCC(C(=O)NC(c5ccccc5)c5ccccc5)N4C(=O)C(NC(=O)C(C)NC)C3)c2)CCC2CCC(C(=O)NC(c3ccccc3)c3ccccc3)N2C1=O | % | 61.9 |
| O=C(c1cc(Cc2n[nH]c(=O)c3ccccc23)ccc1F)N1CCN(C(=O)C2CC2)CC1 + CNC(C)C(=O)NC1CN(S(=O)(=O)c2cccc(S(=O)(=O)N3CCC4CCC(C(=O)NC(c5ccccc5)c5ccccc5)N4C(=O)C(NC(=O)C(C)NC)C3)c2)CCC2CCC(C(=O)NC(c3ccccc3)c3ccccc3)N2C1=O | % | 9.51 |
| C#Cc1c(F)ccc2cc(O)cc(-c3ncc4c(N5CC6CCC(C5)N6)nc(OCC56CCCN5CC(F)C6)nc4c3F)c12 (centres undefined) + Cc1c(S(C)(=O)=O)c(-c2cc(F)cc(N3CCN(c4ccc(NS(=O)(=O)c5ccc(NC(CCN6CCC(C(=O)OCCCP(=O)(O)O)CC6)CSc6ccccc6)c(S(=O)(=O)C(F)(F)F)c5)cc4)CC3)c2)c(-c2ccc(Cl)cc2)n1C(C)C | % | 50.1 |
| C=C(F)C(=O)N1CCN(c2nc(OCC3CCCN3C)nc3c2CCN(c2cccc4cccc(Cl)c24)C3)CC1CC#N (centres undefined) + Cc1c(S(C)(=O)=O)c(-c2cc(F)cc(N3CCN(c4ccc(NS(=O)(=O)c5ccc(NC(CCN6CCC(C(=O)OCCCP(=O)(O)O)CC6)CSc6ccccc6)c(S(=O)(=O)C(F)(F)F)c5)cc4)CC3)c2)c(-c2ccc(Cl)cc2)n1C(C)C | % | 0.14 |

====

Tested on: 327498-153-R-J2-PDC complex spheroid growth, % test/control
Run Description: Anticancer human tumor 327498-153-R-J2-PDC cell line growth inhibition [Asc];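 also: spheroids exposed to compound for 7 days after 3 days of growth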
Test Context: curve of first compound; second compound 0.316 µM
Readings of IC50 for the listed compounds

| Compound | IC50 |
| --- | --- |
| CCN1CCN(Cc2ccc(Nc3ncc(F)c(-c4cc(F)c5nc(C)n(C(C)C)c5c4)n3)nc2)CC1 + Cc1c(S(C)(=O)=O)c(-c2cc(F)cc(N3CCN(c4ccc(NS(=O)(=O)c5ccc(NC(CCN6CCC(C(=O)OCCCP(=O)(O)O)CC6)CSc6ccccc6)c(S(=O)(=O)C(F)(F)F)c5)cc4)CC3)c2)c(-c2ccc(Cl)cc2)n1C(C)C | > 1000 nM |
| C#Cc1c(F)ccc2cc(O)cc(-c3ncc4c(N5CC6CCC(C5)N6)nc(OCC56CCCN5CC(F)C6)nc4c3F)c12 (stereo not drawn) + CNC(C)C(=O)NC1CN(S(=O)(=O)c2cccc(S(=O)(=O)N3CCC4CCC(C(=O)NC(c5ccccc5)c5ccccc5)N4C(=O)C(NC(=O)C(C)NC)C3)c2)CCC2CCC(C(=O)NC(c3ccccc3)c3ccccc3)N2C1=O | > 10000 nM |
| NC1CCC(NC2CC2c2ccccc2)CC1 (stereo not drawn) + CNC(C)C(=O)NC1CN(S(=O)(=O)c2cccc(S(=O)(=O)N3CCC4CCC(C(=O)NC(c5ccccc5)c5ccccc5)N4C(=O)C(NC(=O)C(C)NC)C3)c2)CCC2CCC(C(=O)NC(c3ccccc3)c3ccccc3)N2C1=O | > 100 nM |
